Measured IC50 values are reported for all entries that follow.
Molecular target: mushroom tyrosinase (Agaricus bisporus, UniProt C7FF04)
Sequence (C7FF04 1-392): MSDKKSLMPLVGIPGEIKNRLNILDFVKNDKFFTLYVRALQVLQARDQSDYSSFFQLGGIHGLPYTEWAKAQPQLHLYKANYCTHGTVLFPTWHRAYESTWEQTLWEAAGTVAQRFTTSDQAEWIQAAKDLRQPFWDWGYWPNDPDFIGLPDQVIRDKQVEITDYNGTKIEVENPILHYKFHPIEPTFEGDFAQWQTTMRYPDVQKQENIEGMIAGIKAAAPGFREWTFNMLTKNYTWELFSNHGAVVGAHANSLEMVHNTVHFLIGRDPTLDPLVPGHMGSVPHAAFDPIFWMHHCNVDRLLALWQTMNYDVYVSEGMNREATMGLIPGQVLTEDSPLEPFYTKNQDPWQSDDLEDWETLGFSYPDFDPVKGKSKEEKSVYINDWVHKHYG
Assay: Tyrosinase inhibition assay (L-DOPA oxidation, absorbance at 492 nm);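 further: enzyme in phosphate buffer, compounds preincubated with enzyme, inhibition computed against blank absorbance, IC50 fitted by nonlinear regression, runs in triplicate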
Format: biochemical
# unit: µM | format: bare number

Some solved entries appear below for comparison.
Compound	Assayed system	Measure name	Quantitative readout
COc1ccc(C2CC(=O)c3c(O)cc(OC4OC(COC5OC(C)C(O)C(O)C5O)C(O)C(O)C4O)cc3O2)cc1O (centres unmarked) [Compound 6, hesperetin 7-O-rutinoside]	mushroom tyrosinase (Agaricus bisporus, UniProt C7FF04)	IC50	131
O=c1c(O)c(-c2cc(O)c(O)c(O)c2)oc2cc(O)cc(O)c12 [Compound 42, myricetin]	mushroom tyrosinase (Agaricus bisporus, UniProt C7FF04)	IC50	100

Next, consider the following compound.
// query Requested read-out IC50, target or system mushroom tyrosinase (Agaricus bisporus, UniProt C7FF04), entry O=c1cc(-c2ccccc2)oc2cccc(O)c12 [Compound 7, 5-hydroxyflavone]
// result 120
